The reported numbers originate from PubChem BioAssay AID1996.

Measured solubility kinetic accompanies every entry in the list below.
- Cond: buffer; pH 7.4; 200.0 µM

COc1ccc(OC)c(NC(=S)N2CCN(C(=O)C3CCCO3)CC2)c1 (stereo not given) | > 56.9 µg/mL
Cc1ccc(N2C(=O)CCC2(C(N)=O)c2ccccc2)cc1 (stereo not given) | > 44.2 µg/mL
Cc1cccc(C(=O)OCC(=O)NCc2ccco2)c1 | > 41 µg/mL

Sample CC1=C(C)CC(C(=O)NCc2cccc(Cl)c2)C(C(=O)O)C1 (stereo not given) — what was its solubility kinetic?
> 48.3 µg/mL

Sample CN(CC(=O)c1c(N)n(C)c(=O)n(C)c1=O)c1ccccc1 — what was its solubility kinetic?
> 45.3 µg/mL
